# TARGET_SYSTEM: human 5-HT2C(VSV) (Homo sapiens, UniProt P28335, I156V/I160V/N158S)
# Sequence (P28335 33-458 I156V/N158S/I160V limits assumed): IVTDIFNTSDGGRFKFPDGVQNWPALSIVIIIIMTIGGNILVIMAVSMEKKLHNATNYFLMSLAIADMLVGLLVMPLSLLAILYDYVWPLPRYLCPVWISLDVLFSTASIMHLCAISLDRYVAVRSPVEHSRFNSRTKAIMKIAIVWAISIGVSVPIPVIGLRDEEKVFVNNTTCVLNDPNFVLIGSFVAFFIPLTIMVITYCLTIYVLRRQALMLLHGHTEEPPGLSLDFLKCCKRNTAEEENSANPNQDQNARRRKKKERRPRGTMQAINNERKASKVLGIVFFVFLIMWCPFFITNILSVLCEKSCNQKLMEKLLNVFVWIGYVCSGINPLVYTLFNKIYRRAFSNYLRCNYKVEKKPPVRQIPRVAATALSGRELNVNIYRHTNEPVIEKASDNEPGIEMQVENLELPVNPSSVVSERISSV
# ASSAY_INFO: cell-based
pEC50: −log10 of the molar value.
ASSAY_METRIC: pEC50

> print(dat)
                                    compound      reported
 1     Cc1cccc(CNCCc2cn(C)c3ccc(F)c(O)c23)n1        > 5.00
 2  CCCn1cc(CCN)c2c(OCc3ccc(Cl)cc3)c(F)ccc21        > 5.00
 3  CNCCc1cn(C)c2ccc(F)c(OCCc3ccc(OC)cc3)c12  6.30 to 9.00
 4      CNCCc1cn(C)c2ccc(F)c(OCc3ccccc3C)c12  6.30 to 9.00
 5  CCn1cc(CCNCc2cccc(C(F)(F)F)c2)c2c(O)cc(F)cc21  6.30 to 9.00
 6  COc1c(F)ccc2c1c(CCN1CCCC1C(N)=O)cn2C (stereo not shown)  5.00 to 6.30
 7        Cn1cc(CCNCc2ccccc2)c2c(O)c(F)ccc21  6.30 to 9.00
 8      CCOc1c(F)ccc2c1c(CCNCc1ccccc1Cl)cn2C  6.30 to 9.00
 9     CNCCc1cn(C)c2ccc(F)c(OCc3ccccc3Cl)c12  6.30 to 9.00
10  CNCCc1cn(C)c2ccc(F)c(OCc3ccc(Cl)cc3Cl)c12        > 5.00

====

# TARGET_SYSTEM: human 5-HT2C(VSV) (Homo sapiens, UniProt P28335, I156V/I160V/N158S)
# ASSAY_INFO: cell-based
Recorded measurements of EC50, one per entry
ASSAY_METRIC: EC50

> print(dat)
                                    molecule                             target.system  assay.metric         reported
 1   CNCCc1cn(C)c2c(F)cc(CCC3CCCCC3)c(OC)c12  human 5-HT2C(VSV) (Homo sapiens, UniProt P28335, I156V/I160V/N158S)          EC50      1 to 500 nM
 2  CCn1cc(CCNCc2ccccc2)c2c(OCc3ccccc3)cc(F)cc21  human 5-HT2C(VSV) (Homo sapiens, UniProt P28335, I156V/I160V/N158S)          EC50  500 to 10000 nM
 3  CCOc1c(F)ccc2c1c(CCN1CCCC1CO)cn2C (stereo not shown)  human 5-HT2C(VSV) (Homo sapiens, UniProt P28335, I156V/I160V/N158S)          EC50  500 to 10000 nM
 4  CCn1cc(CCN(C)C)c2c(Oc3ccccc3[N+](=O)[O-])ccc(F)c21  human 5-HT2C(VSV) (Homo sapiens, UniProt P28335, I156V/I160V/N158S)          EC50  500 to 10000 nM
 5  CN(C)CCc1cn(C)c2ccc(F)c(OCc3cccs3)c12 [1-20a]  human 5-HT2C(VSV) (Homo sapiens, UniProt P28335, I156V/I160V/N158S)          EC50      1 to 500 nM
 6          CCOc1c(F)ccc2c1c(CCN1CCOCC1)cn2C  human 5-HT2C(VSV) (Homo sapiens, UniProt P28335, I156V/I160V/N158S)          EC50  500 to 10000 nM
 7       CCn1cc(CCNCc2ccccc2)c2c(O)cc(F)cc21  human 5-HT2C(VSV) (Homo sapiens, UniProt P28335, I156V/I160V/N158S)          EC50      1 to 500 nM
 8  COc1c(F)ccc2c1c(CCNC(CO)c1ccccc1)cn2C (stereo not shown)  human 5-HT2C(VSV) (Homo sapiens, UniProt P28335, I156V/I160V/N158S)          EC50      1 to 500 nM
 9    CCn1cc(CCN(C)C)c2c(Oc3ccccc3)cc(F)cc21  human 5-HT2C(VSV) (Homo sapiens, UniProt P28335, I156V/I160V/N158S)          EC50  500 to 10000 nM
10  COc1ccc(CNCCc2cn(C)c3ccc(F)c(OC)c23)cc1OC  human 5-HT2C(VSV) (Homo sapiens, UniProt P28335, I156V/I160V/N158S)          EC50      1 to 500 nM
